- TARGET DESC: T1, recombinant human IL-12 (rhIL-12) (human, UniProt P29459 23-219; P29460 23-328)
- T1 sequence (looked up) 1: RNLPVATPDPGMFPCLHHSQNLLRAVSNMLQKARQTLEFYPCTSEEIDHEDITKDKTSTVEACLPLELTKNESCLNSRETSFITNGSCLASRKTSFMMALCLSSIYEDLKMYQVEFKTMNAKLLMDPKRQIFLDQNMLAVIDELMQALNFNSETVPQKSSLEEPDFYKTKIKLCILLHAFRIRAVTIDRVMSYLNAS
- T1 sequence (looked up) 2: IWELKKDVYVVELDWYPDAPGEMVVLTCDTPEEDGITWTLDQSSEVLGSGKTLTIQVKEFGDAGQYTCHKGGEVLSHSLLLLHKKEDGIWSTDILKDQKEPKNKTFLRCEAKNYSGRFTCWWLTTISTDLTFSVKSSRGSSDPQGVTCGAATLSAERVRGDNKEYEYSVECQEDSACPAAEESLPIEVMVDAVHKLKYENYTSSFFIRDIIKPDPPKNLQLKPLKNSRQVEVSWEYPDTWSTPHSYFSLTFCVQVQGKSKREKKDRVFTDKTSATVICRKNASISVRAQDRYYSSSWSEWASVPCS
- ASSAY COMMENT: cell-based or functional assay
MEASUREMENT KIND: PHA assay IC50 (M) p70:p40 1:50
One number for each entry, in M.

// batch mode: one PHA assay IC50 (M) p70:p40 1:50 value per listed entry
1. Y61 IgG (antibody, V domains shown, whole IgG1; also called Y61-IgG1) VH: QVQLVQSGGGVVQPGRSLRLSCAASGFTFSSYGMHWVRQAPGKGLEWVAFIRYDGSNKYYADSVKGRFTISRDNSKNTLYLQMKSLRAEDTAVYYCKTHGSHDNWGQGTMVTVSS VL: SYVLTQPPSVSGTPGQRVTISCSGGRSWIGSNTVKWYQQLPGTAPKLLIYGNDQRPSGVPDRFSGSKSGTSASLAITGVQAEDEADYYCQSYDRGTHPALLFGTGTKVTVLG
2. J695 (antibody, human IgG1, V domains shown, human IgG1 with lambda light chain) VH: QVQLVESGGGVVQPGRSLRLSCAASGFTFSSYGMHWVRQAPGKGLEWVAFIRYDGSNKYYADSVKGRFTISRDNSKNTLYLQMNSLRAEDTAVYYCKTHGSHDNWGQGTMVTVSS VL: QSVLTQPPSVSGAPGQRVTISCSGSRSNIGSNTVKWYQQLPGTAPKLLIYYNDQRPSGVPDRFSGSKSGTSASLAITGLQAEDEADYYCQSYDRYTHPALLFGTGTKVTVLG

Response line:
1.8e-10
3.5e-11

Attribution: patent US20150037348A1
